Target: human αV on parental A375M cells (αVβ3 and αVβ5) (human) (UniProt P06756)
Test: FACS, supernatant, parental A375M cells (αVβ3 and αVβ5, no αVβ6)
Parameter: A375M GeoMean
Number only, no unit.

Binder	Parameter	Result Number
sc 320 (antibody, V domains shown) VH: EVQLVESGGGLVKPGGSLRLSCAASGYTFTNYIMHWVRQAPGKGLEWVSSISISSSYIYYADSVKGRFTISRDNAKNSLYLQMNSLRAEDTAVYYCARDPVPLERRDYYYGMDVWGQGTTVTVSS VL: QSVLTQPPSMSAAPGQKVTISCSGSSSNIGNNYVSWYQQLPGTAPKLLIYDNNKRPSGIPDRFSGSKSGTSATLGITGLQTGDEADYYCGTWDSSLSAGVFGGGTKLTVL	A375M GeoMean	23.2
sc 97 (antibody, V domains shown) VH: EVQLVQSGAEVKKPGESLKISCKGSGYSFTSYWIGWVRQMPGKGLEWMGIIYPGDSDTRYSPSFQGQVILSADKSISTAYLQWSSLKASDTAMYYCARHDESSGYYYVFDIWGQGTMVTVSS VL: SYELTQPPSVSVSPGQTARITCSGDALPKKYAYWYQQKSGQAPVLVIYEDIKRPSGIPERFSGSSSGTMATLTISGAQVEDEADYYCYSTDSSGNHWVFFGGGTKLTVL	A375M GeoMean	1.84
sc 277 (antibody, V domains shown) VH: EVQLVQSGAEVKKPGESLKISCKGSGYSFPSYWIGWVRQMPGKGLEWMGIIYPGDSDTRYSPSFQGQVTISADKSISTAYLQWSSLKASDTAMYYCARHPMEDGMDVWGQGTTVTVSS VL: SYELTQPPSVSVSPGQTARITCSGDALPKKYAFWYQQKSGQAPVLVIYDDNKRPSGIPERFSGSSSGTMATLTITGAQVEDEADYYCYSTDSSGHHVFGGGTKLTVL	A375M GeoMean	1.86

Continue with the binder presented below.
QUERY: Value lookup for A375M GeoMean; key = sc 161 (antibody, V domains shown) VH: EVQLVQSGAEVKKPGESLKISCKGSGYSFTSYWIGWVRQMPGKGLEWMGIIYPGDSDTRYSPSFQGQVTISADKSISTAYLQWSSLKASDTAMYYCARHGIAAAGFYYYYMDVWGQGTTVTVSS VL: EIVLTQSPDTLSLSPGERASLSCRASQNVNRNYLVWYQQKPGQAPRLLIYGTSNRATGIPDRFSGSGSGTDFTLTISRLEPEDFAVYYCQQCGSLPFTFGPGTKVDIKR
RESULT: 16.7

Numbers sourced from patent US20150166663A1.
